Origin of the recorded values: patent US20210179578A1

Catalogue of Ki values
Molecular target: human OX1 receptor (Homo sapiens, UniProt O43613)
Sequence (O43613 whole entry): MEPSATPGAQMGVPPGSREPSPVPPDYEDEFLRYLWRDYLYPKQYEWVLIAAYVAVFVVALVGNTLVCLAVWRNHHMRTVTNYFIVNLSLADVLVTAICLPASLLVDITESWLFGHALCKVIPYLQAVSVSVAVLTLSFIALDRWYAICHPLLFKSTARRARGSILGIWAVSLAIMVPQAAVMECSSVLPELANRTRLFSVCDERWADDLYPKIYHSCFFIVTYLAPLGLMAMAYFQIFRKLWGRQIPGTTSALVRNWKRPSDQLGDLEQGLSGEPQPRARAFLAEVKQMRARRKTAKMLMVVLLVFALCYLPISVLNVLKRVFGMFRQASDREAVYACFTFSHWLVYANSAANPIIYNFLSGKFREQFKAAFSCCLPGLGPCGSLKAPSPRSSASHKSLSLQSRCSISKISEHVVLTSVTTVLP
Assay: [3H]-radioligand binding assay, OX1
Design: made in house; host or cells: SF21 insect cells (baculovirus; P0 virus made in SF9)
Settings: [3H]-radioligand binding, human OX1 membranes; read-out: pKi average OX1 (converted)
Please reply with the bare figure in nM and do not write the unit itself.

Consider the worked cases shown below.
{"COMPOUND": "[2H]C([2H])([2H])OCc1cc(F)c(CN2C(=O)N(c3cnc(OC)c(C(C)(F)F)c3)CCc3c(F)cccc32)c(F)c1", "ASSAYED TARGET": "human OX1 receptor (Homo sapiens, UniProt O43613)", "Ki [nM]": 0.316}
{"COMPOUND": "COc1ncc(C2CCc3c(F)cccc3N(Cc3cc(C#N)ccc3F)C2=O)cc1C(C)(F)F (single isomer, unassigned)", "ASSAYED TARGET": "human OX1 receptor (Homo sapiens, UniProt O43613)", "Ki [nM]": 0.794}
{"COMPOUND": "COc1ncc(N2CCc3c(F)cccc3N(Cc3c(F)cc(Br)cc3F)C2=O)cc1S(C)(=O)=O", "ASSAYED TARGET": "human OX1 receptor (Homo sapiens, UniProt O43613)", "Ki [nM]": 3.16}
{"COMPOUND": "Cc1ccc(N2CCc3c(F)cccc3N(Cc3c(F)cc(Br)cc3F)C2=O)cc1S(C)(=O)=O", "ASSAYED TARGET": "human OX1 receptor (Homo sapiens, UniProt O43613)", "Ki [nM]": 1.58}

Then this compound:
Q: I'd like to know its Ki. The compound in question is Cc1ncc(C2CCc3c(F)cccc3N(Cc3c(F)cc(Br)cc3F)C2=O)cc1S(C)(=O)=O (single isomer, unassigned) [Example 39]
Result: 1.26

* * *

Catalogue of Kb values
Biological target: human OX1 receptor (Homo sapiens, UniProt O43613)
Assay: IPone accumulation assay, CHO cells expressing OX1 (antagonism of orexin A)
Assay type: cell-based
Settings: IPone accumulation, CHO human OX1, orexin A EC80 challenge (~20 nM); read-out: fpKb average OX1 (converted)
Answer with the value and then the unit.

Consider the worked cases shown below.
{"COMPOUND": "Cc1cc(C)c(S(C)(=O)=O)cc1N1CCc2c(F)cccc2N(Cc2c(F)cc(Br)cc2F)C1=O [Example 31]", "Kb": "20 nM"}
{"COMPOUND": "Cc1cc(C)c(S(C)(=O)=O)cc1N1CCc2ccccc2N(Cc2c(F)cc(OC(C)C)cc2F)C1=O [Example 30]", "Kb": "39.8 nM"}
{"COMPOUND": "COc1nc(OC)c(C(C)(F)F)cc1N1CCc2c(F)cccc2N(Cc2c(F)cc(Br)cc2F)C1=O [Example 23]", "Kb": "50.1 nM"}

Then this compound:
Q: Request body: readout Kb, system human OX1 receptor (Homo sapiens, UniProt O43613), query [2H]C([2H])([2H])Oc1cc(F)c(CN2C(=O)N(c3cnc(OC)c(C(C)(F)F)c3)CCc3c(F)cccc32)c(F)c1 [Example 6] . Return the value.
Result: 10 nM

* * *

Target: human OX2 receptor (Homo sapiens, UniProt O43614)
Sequence (O43614 whole entry): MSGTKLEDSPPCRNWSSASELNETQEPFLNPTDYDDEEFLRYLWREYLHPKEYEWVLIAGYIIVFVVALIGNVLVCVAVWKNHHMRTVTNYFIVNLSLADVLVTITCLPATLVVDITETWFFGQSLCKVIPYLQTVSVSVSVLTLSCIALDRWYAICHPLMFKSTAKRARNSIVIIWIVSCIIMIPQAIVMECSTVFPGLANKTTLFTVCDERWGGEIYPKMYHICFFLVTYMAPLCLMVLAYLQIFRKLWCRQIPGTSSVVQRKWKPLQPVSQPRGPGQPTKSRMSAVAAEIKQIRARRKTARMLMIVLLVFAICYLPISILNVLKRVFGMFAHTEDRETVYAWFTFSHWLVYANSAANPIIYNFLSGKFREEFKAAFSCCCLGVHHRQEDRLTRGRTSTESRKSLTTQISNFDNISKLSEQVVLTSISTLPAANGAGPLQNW
Assay: IPone accumulation assay, CHO cells expressing OX2 (antagonism of orexin A)
Assay type: cell-based
Details: CHO human OX2, orexin A EC80 challenge (40 nM), read-out: fpKb average OX2 (converted)
Catalogue of Kb values

Consider the worked cases shown below.
{"MOLECULE": "Cc1ncc(N2CCc3c(F)cccc3N(Cc3c(F)cc(Br)cc3F)C2=O)cc1C(C)(F)F [Example 32]", "QUANTITY KIND": "Kb", "RESULT": "> 631 nM"}
{"MOLECULE": "CCCc1cc(F)c(CN2C(=O)N(c3cnc(C)c(C(C)(F)F)c3)CCc3c(F)cccc32)c(F)c1 [Example 34]", "QUANTITY KIND": "Kb", "RESULT": "> 2510 nM"}

Q: Request body: readout Kb, system human OX2 receptor (Homo sapiens, UniProt O43614), query COc1ncc(N2CCc3c(F)cccc3N(Cc3c(F)cc(Br)cc3F)C2=O)cc1C(C)(F)F [Example 3] . Return the value.
Result: > 794 nM

Q: Request body: readout Kb, system human OX2 receptor (Homo sapiens, UniProt O43614), query COc1nc(OC)c(C(C)(F)F)cc1N1CCc2c(F)cccc2N(Cc2c(F)cc(Br)cc2F)C1=O [Example 23] . Return the value.
Result: > 1580 nM

Q: Request body: readout Kb, system human OX2 receptor (Homo sapiens, UniProt O43614), query Cc1ccc(N2CCc3c(F)cccc3N(Cc3c(F)cc(Br)cc3F)C2=O)cc1C(C)(F)F [Example 1] . Return the value.
Result: > 3160 nM

Q: Request body: readout Kb, system human OX2 receptor (Homo sapiens, UniProt O43614), query Cc1ncc(C2CCc3c(F)cccc3N(Cc3c(F)cc(Br)cc3F)C2=O)cc1S(C)(=O)=O (single isomer, unassigned) [Example 38] . Return the value.
Result: > 398 nM

Q: Request body: readout Kb, system human OX2 receptor (Homo sapiens, UniProt O43614), query COc1ncc(N2CCc3c(F)cccc3N(Cc3c(F)cc(Br)cc3F)C2=O)cc1S(C)(=O)=O [Example 14] . Return the value.
Result: > 794 nM
